SYSTEM: IRAK4 (Homo sapiens (Human), UniProt Q9NWZ3)
Sequence (Q9NWZ3 whole entry): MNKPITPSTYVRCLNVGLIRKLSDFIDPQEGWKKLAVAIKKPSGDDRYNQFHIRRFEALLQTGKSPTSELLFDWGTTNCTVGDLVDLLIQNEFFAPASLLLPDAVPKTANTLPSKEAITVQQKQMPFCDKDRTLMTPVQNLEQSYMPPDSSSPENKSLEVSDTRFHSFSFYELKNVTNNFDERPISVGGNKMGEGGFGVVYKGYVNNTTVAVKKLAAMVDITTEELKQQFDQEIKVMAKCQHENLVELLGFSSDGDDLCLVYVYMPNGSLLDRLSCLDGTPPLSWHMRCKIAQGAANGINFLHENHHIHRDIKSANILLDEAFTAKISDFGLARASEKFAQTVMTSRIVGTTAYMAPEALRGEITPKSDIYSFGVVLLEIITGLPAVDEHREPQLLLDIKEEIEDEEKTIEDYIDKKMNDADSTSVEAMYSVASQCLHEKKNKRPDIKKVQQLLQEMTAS
EXPERIMENTAL DETAILS: IRAK4 MSD degradation in OCI-LY10
Format: cell-based
CONDITION CONTEXT: OCI-LY10, 4 hrs, MSD; read-out: IRAK4 MSD degradation in OCI-LY10 at 4 hrs: Average external-Abs DC50

MOLECULE	DC50
Cn1c(=O)n(C2CCC(=O)NC2=O)c2cccc(CCCOCCOCCNC[C@H]3CC[C@H](n4cc(NC(=O)c5coc(-c6ccnc(NCC7CC7)c6)n5)c(C(F)F)n4)CC3)c21 (some centres unmarked)	100 to 1000 nM
CN(CCCN1CCN(c2cccc3c2C(=O)N(C2CCC(=O)NC2=O)C3=O)CC1)C[C@H]1CC[C@H](n2cc(NC(=O)c3cnn4ccc(N5CCOCC5)nc34)c(C(F)F)n2)CC1 (some centres unmarked)	10 to 100 nM
Cn1c(=O)n(C2CCC(=O)NC2=O)c2ccc(CCCN3CCO[C@@H](CNC[C@H]4CC[C@H](n5cc(NC(=O)c6coc(-c7ccnc(NCC(F)(F)F)c7)n6)c(C(C)(C)O)n5)CC4)C3)cc21 (some centres unmarked)	10 to 100 nM
CN(CC(CCCOCCCc1cccc2c1n(C)c(=O)n2C1CCC(=O)NC1=O)C(=O)O)C[C@H]1CC[C@H](n2cc(NC(=O)c3coc(-c4ccnc(NCC5CC5)c4)n3)c(C(F)F)n2)CC1 (some centres unmarked)	10 to 100 nM
Cn1c(=O)n(C2CCC(=O)NC2=O)c2ccc(CCOCCN3CCO[C@@H](CNC[C@H]4CC[C@H](n5cc(NC(=O)c6cnn7ccc(N8CCNCC8)nc67)c(C(F)F)n5)CC4)C3)cc21 (some centres unmarked)	< 10 nM
Cc1c[nH]c2ncnc(N[C@H]3CC[C@H](N4CCN(C(=O)CCOCCCc5ccc6c(c5)n(C)c(=O)n6C5CCC(=O)NC5=O)CC4)CC3)c12 (some centres unmarked)	> 1000 nM
O=C1CCC(N2C(=O)c3cccc(NCCCOC4CCN(C[C@H]5CC[C@H](n6cc(NC(=O)c7cnn8ccc(N[C@@H]9CCCC[C@@H]9O)nc78)c(C(F)F)n6)CC5)CC4)c3C2=O)C(=O)N1 (some centres unmarked)	10 to 100 nM
CC[C@@H]1[C@H](F)C(=O)N[C@@H]1COc1ncc(C#C[C@H]2CC[C@H](CN(C)CCCOCCNc3cccc4c3C(=O)N(C3CCC(=O)NC3=O)C4=O)CC2)c2cc(C(N)=O)c(OC)cc12 (some centres unmarked)	100 to 1000 nM
CN(Cc1ccc(CCNc2cccc3c2C(=O)N(C2CCC(=O)NC2=O)C3=O)cc1)C[C@H]1CC[C@H](n2cc(NC(=O)c3cnn4ccc(N5CCOCC5)nc34)c(C(F)F)n2)CC1 (some centres unmarked)	100 to 1000 nM
C=C(C)c1nn([C@H]2CC[C@H](CN(C)C3CCN(Cc4cccc5c4n(C)c(=O)n5C4CCC(=O)NC4=O)CC3)CC2)cc1NC(=O)c1cnn2ccc(NCC3CC3)nc12 (some centres unmarked)	100 to 1000 nM
Cn1c(=O)n(C2CCC(=O)NC2=O)c2cccc(C3CCN(C[C@H]4CC[C@H](n5cc(NC(=O)c6cnn7ccc(N8CCOCC8)nc67)c(C(F)F)n5)CC4)CC3)c21 (some centres unmarked)	100 to 1000 nM
O=C1CCC(N2C(=O)c3cccc(NCCCOCCCOCCCN4CCC(n5cc(NC(=O)c6cnn7ccc(N8C[C@H]9C[C@@H]8CO9)nc67)c(C(F)F)n5)CC4)c3C2=O)C(=O)N1 (some centres unmarked)	100 to 1000 nM
CN[C@@H](C)C(=O)N[C@H](C(=O)N1CCC[C@H]1c1nc(C(=O)c2cccc(OCCOCCOCCOCCOCCNC[C@H]3CC[C@H](n4cc(NC(=O)c5coc(-c6ccnc(NCC7CC7)c6)n5)c(C(F)F)n4)CC3)c2)cs1)C1CCCCC1	100 to 1000 nM
CN(C(=O)CCCNc1cccc2c1C(=O)N(C1CCC(=O)NC1=O)C2=O)C1CCN(C[C@H]2CC[C@H](n3cc(NC(=O)c4cnn5ccc(N6C[C@H]7C[C@@H]6CO7)nc45)c(C(F)F)n3)CC2)CC1 (some centres unmarked)	< 10 nM
Cn1c(=O)n(C2CCC(=O)NC2=O)c2ccc(CN3CCN(CCO[C@H]4C[C@H](N(C)C(=O)[C@H]5CC[C@H](n6cc(NC(=O)c7coc(-c8ccnc(NCC9CC9)c8)n7)c(C(F)F)n6)CC5)C4)CC3)cc21 (some centres unmarked)	< 10 nM
CN(CCCN1CCO[C@@H](CNc2cccc3c2C(=O)N(C2CCC(=O)NC2=O)C3=O)C1)C[C@H]1CC[C@H](n2cc(NC(=O)c3cnn4ccc(N5C[C@H]6C[C@@H]5CO6)nc34)c(C(F)F)n2)CC1 (some centres unmarked)	100 to 1000 nM
Cn1c(=O)n(C2CCC(=O)NC2=O)c2cccc(CN3CCC(OC4CCN(C[C@H]5CC[C@H](n6cc(NC(=O)c7coc(-c8ccnc(NCC9CC9)c8)n7)c(C(F)F)n6)CC5)CC4)CC3)c21 (some centres unmarked)	< 10 nM
